Consider the following compounds and their measured z-score readings.
assay: S. cerevisiae growth modulation with rapamycin, primary screen, strain BY4716, OD600, 96 h (AID 1091); details: higher = more signal, called active from +8 up or from −8 down; further: test concentration not given here
Please reply with the number alone, leaving off any unit.

Consider the worked cases shown below.
| Compound | Recorded Result |
| --- | --- |
| [N-]=[N+]=NCc1ccccc1[C@H]1OC(c2ccc(OCCCO)cc2)=N[C@@]1(Cc1ccccc1N=[N+]=[N-])C(N)=O | -1.39 |
| COCCOC(=O)N1C(=O)[C@@]2(c3cc(C#CCNC(N)=O)ccc31)[C@H](C(=O)Nc1nc3ccccc3s1)[C@H]1C(=O)O[C@H](c3ccccc3)[C@H](c3ccccc3)N1[C@@H]2c1ccc(O)cc1 | 1.32 |
| C=CC[C@@]1(C(=O)NCCCOC)N=C(c2ccc(OCCCO)cc2)O[C@@H]1c1ccccc1CN=[N+]=[N-] | -0.966 |

Consider CN1C(=O)C2C=CC(C(O)c3cccs3)N(N(c3ccccc3)c3ccccc3)C2C1=O (configuration not stated) . Its measured z-score is 0.571

# compound COC(=O)[C@@]1(Cc2ccc(F)cc2)[C@H]2c3cc(C(=O)N4CCCC4)n(Cc4ccc(OC(F)(F)F)cc4)c3C[C@H]2CN1C(=O)c1ccccc1 ; its z-score = -0.16

Memo: CCOC(=O)C1=CCC(c2cccn2C(=O)OC(C)(C)C)N(S(=O)(=O)c2ccc(C)cc2)C1 (configuration not stated) , reported z-score: 0.382

Recorded z-score (compound O=C1OCCC/C=C\[C@H]2OC34C=CCN(Cc5ccccc5)C(=O)[C@H]3N(CCO)C(=O)[C@@H]4C12 (some centres not stated) ): -0.462

* * *

biological target: Torsin-1A (Homo sapiens) (UniProt O14656); test: torsin A binders from cell lysate, primary screen, small-molecule microarray, wild-type, 635/667 nm (AID 1149); settings: COS7 hTOR1A-WT lysate, 635 nm fluorescence, higher = more signal
Sequence (O14656 whole entry, looked up): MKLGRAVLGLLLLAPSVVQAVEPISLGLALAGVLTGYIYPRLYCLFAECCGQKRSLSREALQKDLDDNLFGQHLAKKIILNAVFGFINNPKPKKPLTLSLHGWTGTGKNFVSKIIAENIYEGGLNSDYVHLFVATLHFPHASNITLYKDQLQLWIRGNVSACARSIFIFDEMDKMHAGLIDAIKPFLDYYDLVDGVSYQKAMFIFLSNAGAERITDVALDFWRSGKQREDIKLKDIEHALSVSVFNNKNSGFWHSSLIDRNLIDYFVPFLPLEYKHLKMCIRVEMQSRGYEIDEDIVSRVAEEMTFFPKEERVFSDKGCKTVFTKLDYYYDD
Result Type: composite z-score

Would you please look over these solved cases?
| Molecule | Result Type | Recorded Result |
| --- | --- | --- |
| COc1ccc(C(O)C2C=CC3C(=O)N(C)C(=O)C3N2Nc2ccccc2)cc1 (configuration not stated) | composite z-score | 0.271 |
| CCc1cccc(NC(=O)O[C@H]2[C@H](OC(=O)Nc3ccccc3-c3ccccc3)[C@H](OC(=O)Nc3ccccc3-c3ccccc3)[C@@H](OC)O[C@@H]2CO)c1 | composite z-score | 0.762 |
| CCCCC(=C=CC[C@H](O)c1cccc(OCCO)c1)C[C@H](O)c1cc(Cl)cc(Cl)c1O | composite z-score | 0.437 |
| COc1cc2c(cc1OC)CN(C(=O)[C@@H]1[C@H]3C(=O)O[C@H](c4ccccc4)[C@H](c4ccccc4)N3[C@H](c3ccc(O)cc3)[C@@]13C(=O)Nc1ccc(C#CC4=CCCCC4)cc13)CC2 | composite z-score | 0.335 |
| O=C1c2ccccc2[C@](Cc2ccccc2I)(C(=O)NCCN2CCOCC2)[C@H](c2ccc(CO)cc2)N1Cc1ccccc1C(F)(F)F | composite z-score | 0.717 |

The molecule listed as [N-]=[N+]=NCc1ccccc1[C@H]1OC(c2ccc(OCCCO)cc2)=N[C@@]1(Cc1ccccc1N=[N+]=[N-])C(=O)O shows composite z-score equal to 0.136

In plain terms, CCOC(=O)C1=CCC(c2cccn2C(=O)OC(C)(C)C)N(S(=O)(=O)c2ccc(C)cc2)C1 (configuration not stated) has a documented composite z-score of 0.0444
